species on record: Rattus norvegicus; test: Open TG-GATES - Regimen: Daily Repeat; assay type: toxicity, organism-based, Sprague-Dawley; set-up: regimen Daily Repeat, gender Male, age 6 weeks; settings: in vivo, po, 0 mg/kg, […], tissue Plasma, route gavage, dose level Control, time 28 day
// reported PL for each item listed

Some compounds with known PL results, for comparison:
CC(C)N(CCC(C(N)=O)(c1ccccc1)c1ccccn1)C(C)C (stereo not given) [DISOPYRAMIDE] :: 145.4 mg/dL
CN(C)CCC=C1c2ccccc2COc2ccccc21 [DOXEPIN] :: 166 mg/dL
CCC1(c2ccccc2)C(=O)NC(=O)NC1=O :: 165.8 mg/dL
CCc1oc2ccccc2c1C(=O)c1cc(Br)c(O)c(Br)c1 :: 146.4 mg/dL

Task: Please report the measured PL for OCCOCCN1CCN(C(c2ccccc2)c2ccc(Cl)cc2)CC1 (stereo not given) [HYDROXYZINE]
Output: 149.2 mg/dL

----------
species: Rattus norvegicus; test: Open TG-GATES - Regimen: Daily Repeat; format: toxicity, organism-based, Sprague-Dawley; design: regimen Daily Repeat, gender Male, age 6 weeks; conditions: in vivo, po, 0 mg/kg, […], tissue Kidney, route gavage, dose level Control, time 14 day
// reported KIDNEY_L for each item listed
Quick note: give the figure in g, leave out the unit.

Some compounds with known KIDNEY_L results, for comparison:
OCCOCCN1CCN(C(c2ccccc2)c2ccc(Cl)cc2)CC1 (stereo unspecified) [HYDROXYZINE] :: 1.3
CC(C)N(CCC(C(N)=O)(c1ccccc1)c1ccccn1)C(C)C (stereo unspecified) [DISOPYRAMIDE] :: 1.2
CC[C@H]1[C@@H]2C[C@H]3[C@@H]4N(C)c5ccccc5[C@]45C[C@@H]([C@@H]2[C@H]5O)N3[C@@H]1O :: 1.2
CCC1(c2ccccc2)C(=O)NC(=O)NC1=O :: 1.1
O=NN(CCCl)C(=O)NC1CCCCC1 :: 1.1
ClC(Cl)(Cl)Cl [CARBON TETRACHLORIDE] :: 1.2
CC1=C(CC(=O)O)c2cc(F)ccc2/C1=C\c1ccc([S+](C)[O-])cc1 (stereo unspecified) :: 1.3
CCc1oc2ccccc2c1C(=O)c1cc(Br)c(O)c(Br)c1 :: 1.2

Task: Please report the measured KIDNEY_L for `CN(C)C(=N)N=C(N)N`
Output: 1.2

Task: Please report the measured KIDNEY_L for CN(C)CCC=C1c2ccccc2COc2ccccc21 [DOXEPIN]
Output: 1.2

Task: Please report the measured KIDNEY_L for `CCCCc1oc2ccccc2c1C(=O)c1cc(I)c(OCCN(CC)CC)c(I)c1`
Output: 1.2

----------
species on record: Rattus norvegicus; assay: Open TG-GATES - Regimen: Single; assay type: toxicity, organism-based, Sprague-Dawley; design: regimen Single, gender Male, age 6 weeks; details: in vivo, po, 0 mg/kg, 6 h, tissue Plasma, route gavage, dose level Control
MEASUREMENT KIND: DBIL
Respond with a number, then the unit of measure.

Some molecules with known DBIL results, for comparison:
CN(C)CCC=C1c2ccccc2COc2ccccc21 [DOXEPIN] :: 0.004 mg/dL
CC[C@H]1[C@@H]2C[C@H]3[C@@H]4N(C)c5ccccc5[C@]45C[C@@H]([C@@H]2[C@H]5O)N3[C@@H]1O [AJMALINE] :: 0.042 mg/dL

Task: Please report the measured DBIL for CC(C)N(CCC(C(N)=O)(c1ccccc1)c1ccccn1)C(C)C (stereo not given) [DISOPYRAMIDE]
Output: 0 mg/dL

Task: Please report the measured DBIL for OCCOCCN1CCN(C(c2ccccc2)c2ccc(Cl)cc2)CC1 (stereo not given) [HYDROXYZINE]
Output: 0.012 mg/dL

Task: Please report the measured DBIL for CCC1(c2ccccc2)C(=O)NC(=O)NC1=O [PHENOBARBITAL]
Output: 0.074 mg/dL

Task: Please report the measured DBIL for ClC(Cl)(Cl)Cl [CARBON TETRACHLORIDE]
Output: 0.094 mg/dL

Task: Please report the measured DBIL for CC1=C(CC(=O)O)c2cc(F)ccc2/C1=C\c1ccc([S+](C)[O-])cc1 (stereo not given)
Output: 0.002 mg/dL

----------
// reported Neu for each item listed
species on record: Rattus norvegicus; assay: Open TG-GATES - Regimen: Single; assay type: toxicity, organism-based, Sprague-Dawley; set-up: regimen Single, gender Male, age 6 weeks; conditions: in vivo, po, 0 mg/kg, 9 h, tissue Blood, route gavage, dose level Control
Quick note: give the figure in %, leave out the unit.

Some compounds with known Neu results, for comparison:
ClC(Cl)(Cl)Cl [CARBON TETRACHLORIDE] :: 20
OCCOCCN1CCN(C(c2ccccc2)c2ccc(Cl)cc2)CC1 (centres undefined) [HYDROXYZINE] :: 22.4
CCC1(c2ccccc2)C(=O)NC(=O)NC1=O :: 18

In the following, a different compound is considered.
Task: Please report the measured Neu for `CN(C)C(=N)N=C(N)N`
Output: 21.4

----------
organism: Rattus norvegicus; assay: Open TG-GATES - Regimen: Single; format: toxicity, organism-based, Sprague-Dawley; design: regimen Single, gender Male, age 6 weeks; conditions: in vivo, po, 0 mg/kg, 9 h, tissue Plasma, route gavage, dose level Control
MEASUREMENT KIND: CRE

Some molecules with known CRE results, for comparison:
CN(C)CCC=C1c2ccccc2COc2ccccc21 [DOXEPIN] :: 0.2 mg/dL
CN(C)C(=N)N=C(N)N :: 0.1 mg/dL
CCc1oc2ccccc2c1C(=O)c1cc(Br)c(O)c(Br)c1 :: 0.6 mg/dL
CCC1(c2ccccc2)C(=O)NC(=O)NC1=O :: 0.3 mg/dL

In the following, a different molecule is considered.
Task: Please report the measured CRE for CC(C)N(CCC(C(N)=O)(c1ccccc1)c1ccccn1)C(C)C (stereo not given) [DISOPYRAMIDE]
Output: 0.1 mg/dL

----------
// reported RBC for each item listed
species on record: Rattus norvegicus; experiment: Open TG-GATES - Regimen: Single; format: toxicity, organism-based, Sprague-Dawley; set-up: regimen Single, gender Male, age 6 weeks; conditions: in vivo, po, 0 mg/kg, 6 h, tissue Blood, route gavage, dose level Control
Quick note: give the figure in x10_4/ul, leave out the unit.

Some compounds with known RBC results, for comparison:
OCCOCCN1CCN(C(c2ccccc2)c2ccc(Cl)cc2)CC1 (stereo not given) [HYDROXYZINE] :: 604
CC[C@H]1[C@@H]2C[C@H]3[C@@H]4N(C)c5ccccc5[C@]45C[C@@H]([C@@H]2[C@H]5O)N3[C@@H]1O :: 605.4
CCC1(c2ccccc2)C(=O)NC(=O)NC1=O :: 656.8
CC(C)N(CCC(C(N)=O)(c1ccccc1)c1ccccn1)C(C)C (stereo not given) [DISOPYRAMIDE] :: 615.4
CN(C)CCC=C1c2ccccc2COc2ccccc21 [DOXEPIN] :: 624.8
ClC(Cl)(Cl)Cl [CARBON TETRACHLORIDE] :: 593.6
CCc1oc2ccccc2c1C(=O)c1cc(Br)c(O)c(Br)c1 :: 645.6
CC1=C(CC(=O)O)c2cc(F)ccc2/C1=C\c1ccc([S+](C)[O-])cc1 (stereo not given) :: 670.4

Task: Please report the measured RBC for `CN(C)C(=N)N=C(N)N`
Output: 618.4

Task: Please report the measured RBC for `O=NN(CCCl)C(=O)NC1CCCCC1`
Output: 619.2

----------
species: Rattus norvegicus; assay: Open TG-GATES - Regimen: Single; assay type: toxicity, organism-based, Sprague-Dawley; parameters: regimen Single, gender Male, age 6 weeks; conditions: in vivo, po, 0 mg/kg, 3 h, tissue Blood, route gavage, dose level Control
Decide using Neu alone. Strictly below 20%: condition met. Equal to or above 20%: condition not met.

OCCOCCN1CCN(C(c2ccccc2)c2ccc(Cl)cc2)CC1 (centres undefined) [HYDROXYZINE] :: condition met
CC1=C(CC(=O)O)c2cc(F)ccc2/C1=C\c1ccc([S+](C)[O-])cc1 (centres undefined) :: condition met
CC[C@H]1[C@@H]2C[C@H]3[C@@H]4N(C)c5ccccc5[C@]45C[C@@H]([C@@H]2[C@H]5O)N3[C@@H]1O :: condition met
CN(C)CCC=C1c2ccccc2COc2ccccc21 [DOXEPIN] :: condition met
CN(C)C(=N)N=C(N)N :: condition met

Task: Please state whether Neu is below 20% for `O=NN(CCCl)C(=O)NC1CCCCC1`
Output: condition met

Task: Please state whether Neu is below 20% for `CCc1oc2ccccc2c1C(=O)c1cc(Br)c(O)c(Br)c1`
Output: condition met

Task: Please state whether Neu is below 20% for ClC(Cl)(Cl)Cl [CARBON TETRACHLORIDE]
Output: condition not met

Task: Please state whether Neu is below 20% for `CCC1(c2ccccc2)C(=O)NC(=O)NC1=O`
Output: condition not met

meta.source: ChEMBL document CHEMBL3885861
